# system.name: TNFα-TNFR1 interaction (Homo sapiens, UniProt P01375)
# Construct: made in house; host or cells: Escherichia coli (TNFα)
# measurement.protocol: ELISA inhibition of TNFα-TNFR1 interaction (immobilized biotinylated TNFα, TNFR1-HRP)
# Format: binding
# measurement.conditions: inhibition of TNFα-TNFR1 interaction, unlabeled peptides
# Protocol: Inhibition of TNFα-TNRF1 interaction by ELISA was carried out as previously described (Lian, W.; et al., supra). Because of its high-throughput capability, FA analysis had been used to generate all of the SAR data described above. […] After washing, the amount of bound TNFR1-HRP was quantitated by ELISA. […]
pIC50: −log10 of the molar value.
Each entry gets FALSE if its pIC50 stays under 7, and TRUE if its pIC50 is 7 or above.

compound	class.assignment
CC(=O)C[C@H](CCc1ccccc1)NC(=O)[C@@H](CC(N)=O)NC(=O)C(N)Cc1ccccc1F (stereo partly drawn)	TRUE
CC(=O)[C@@H]1CCCN(C(=O)[C@@H](Cc2c[nH]cn2)NC(=O)C(N)C(C)C)C1 (stereo partly drawn)	TRUE
CC(=O)[C@@H](Cc1ccc(O)cc1)NC(=O)[C@@H](CC(=O)O)NC(=O)C(N)CC(=O)O (stereo partly drawn)	FALSE

Data origin, for the record: patent US10913773B2
